Here, each record is paired with measured pIC50 data.
molecular target: recombinant human farnesyl transferase (Homo sapiens, UniProt P49354+P49356); experiment: In vitro inhibition of ras farnesyl transferase; settings: concentration of test compound giving 50% inhibition of FTase, Table 1, read-out: IC50 (inhibition of RAS farnesylation)
Answer as the number alone; pIC50 is minus log10 of concentration in mol/L.

Please indicate pIC50 recorded for C=CC[C@H](OC[C@@H](NC[C@@H](N)CS)[C@@H](C)CC)C(=O)N[C@@H](CCO)C(=O)O
7.74

Please indicate pIC50 recorded for CC[C@H](C)[C@@H](CO[C@@H](Cc1ccccc1)C(=O)N[C@@H](CCO)C(=O)O)NC[C@@H](N)CS
8.30

Please indicate pIC50 recorded for CC[C@H](C)[C@@H](CS[C@@](C)(Cc1ccccc1)C(=O)N[C@@H](CCO)C(=O)O)NC[C@@H](N)CS
6.62

Please indicate pIC50 recorded for CCC[C@H](OC[C@@H](NC[C@@H](N)CS)[C@@H](C)CC)C(=O)N[C@@H](CCO)C(=O)O
8.15

* * *

biological target: recombinant human farnesyl transferase (Homo sapiens, UniProt P49354+P49356); assay: In vitro inhibition of ras farnesyl transferase; conditions: concentration of test compound giving 50% inhibition of FTase, Table 1, read-out: IC50 (inhibition of RAS farnesylation)
pIC50: −log10 of the molar value.
Decide by pIC50: equal to or exceeding 8 means satisfied, less means not satisfied.

smiles.str | answer.label
CC[C@H](C)[C@@H](CO[C@@H](CC(C)C)C(=O)N[C@@H](CCO)C(=O)O)NC[C@@H](N)CS | not satisfied

Is pIC50 for CC[C@H](C)[C@@H](CO[C@@H](Cc1ccccc1)C(=O)N[C@@H](CCS(C)(=O)=O)C(=O)O)NC[C@@H](N)CS at or above 8?
satisfied

Is pIC50 for CC[C@H](C)[C@@H](CO[C@@H](Cc1ccccc1)C(=O)N[C@@H](CCSC)C(=O)O)NC[C@@H](N)CS at or above 8?
satisfied

Is pIC50 for CC[C@H](C)[C@@H](CS(=O)(=O)[C@@](C)(Cc1ccccc1)C(=O)N[C@@H](CCO)C(=O)O)NC[C@@H](N)CS at or above 8?
not satisfied

Is pIC50 for CC[C@H](C)[C@@H](CO[C@H](C(=O)N[C@@H](CCO)C(=O)O)C(C)C)NC[C@@H](N)CS at or above 8?
satisfied
